- SYSTEM UNDER TEST: Proteasome subunit beta (Trypanosoma cruzi)
- Sequence (whole entry): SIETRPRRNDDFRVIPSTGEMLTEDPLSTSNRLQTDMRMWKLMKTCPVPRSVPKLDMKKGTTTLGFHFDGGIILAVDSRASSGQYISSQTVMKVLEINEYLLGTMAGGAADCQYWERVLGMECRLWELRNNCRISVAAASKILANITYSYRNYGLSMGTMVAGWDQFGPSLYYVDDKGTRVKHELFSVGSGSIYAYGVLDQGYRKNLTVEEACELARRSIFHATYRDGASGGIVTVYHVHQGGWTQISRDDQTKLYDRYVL
- ASSAY PROCEDURE: Trypanosoma cruzi proteasome chymotrypsin-like activity (TcProtChymo) assay. Also: in the data most compounds retested in dose-response had high values.
- Type: functional
- Set-up: scale not given: direction of the effect not stated beside the values
- COND: 9.37 µM
Criterion: Percent Effect meeting or surpassing 10%. Met: 1 (yes). Not met: 0 (no).

INSERT INTO measurements (compound, class_assignment) VALUES
  ('Cc1ncc2c(n1)CN(Cc1nnc(Cc3ccccc3)o1)CC2', '1 (yes)'),
  ('COCCCNC(=O)CCn1nc(C)c2ccccc21', '1 (yes)'),
  ('O=C(Nc1cccnc1)[C@H]1CO[C@H]2CCN(c3ncc(F)cn3)C[C@H]2C1', '1 (yes)'),
  ('Cc1nc(-c2cccc(C(=O)O)c2)cc(C2CCN(C(C)C)C2)n1 (stereo not given)', '0 (no)'),
  ('Cc1ccccc1CN(C)Cc1nc2c(cnn2C)c(=O)[nH]1', '1 (yes)'),
  ('CS(=O)(=O)c1ccccc1C(=O)NCC1Cc2ccccc2O1 (stereo not given)', '1 (yes)'),
  ('COc1cccc(OCC2CCCN(C(C)=O)C2)c1 (stereo not given)', '1 (yes)'),
  ('Cc1cnn(C2CCCN(C(=O)c3cnc4ccccc4n3)C2)c1 (stereo not given)', '0 (no)'),
  ('Cc1sc(NC(=O)CN(C)S(C)(=O)=O)c(C#N)c1C', '1 (yes)'),
  ('COc1cc(C(C)=O)ccc1OCC(=O)N(C)Cc1cnn(C)c1', '0 (no)'),
  ('Cn1ccc(NC(=O)Cc2cccc(F)c2)n1', '1 (yes)'),
  ('CC(C)NC(=O)N1CCC2(C1)CN(c1ccsc1)C(=O)CN2C (stereo not given)', '1 (yes)'),
  ('CCSCCC(=O)NS(=O)(=O)c1ccc2c(c1)OCCO2', '0 (no)'),
  ('Cc1ccc(C(=O)Nc2cn[nH]c2)cn1', '0 (no)'),
  ('CC(C)NC(=O)CC1COC2(CCN(Cc3ccccc3)CC2)C1 (stereo not given)', '1 (yes)'),
  ('Cn1cc(C2COC3(CCN(C(=O)Cn4cccn4)CC3)C2)cn1 (stereo not given)', '1 (yes)'),
  ('CN(CCO)Cc1nnc(C2CCN(C(=O)c3cccnc3)CC2)n1C', '0 (no)'),
  ('COc1ncccc1CNC(=O)NCCNC(=O)c1ccco1', '1 (yes)'),
  ('CCc1nc(CN(C)C2CCN(CCS(C)(=O)=O)C2)no1 (stereo not given)', '1 (yes)'),
  ('O=C(NCCCN1CCOCC1)c1cc(-c2ccc3c(c2)CCO3)n[nH]1', '1 (yes)'),
  ('CCc1ccc(CN2CCC3(CC2)CNC(=O)CO3)o1', '0 (no)'),
  ('Cc1cc(CN2CCOC(CN(C)c3cccnn3)C2)no1 (stereo not given)', '0 (no)'),
  ('COc1cc(C(=O)Nc2c(C)noc2C)ccc1C', '0 (no)'),
  ('Cc1cccc(-c2nc(CN3CCc4cnc(C)nc4C3)no2)c1', '0 (no)'),
  ('Cc1ccc(CNC(=O)N2CCN(Cc3ccsc3)CC2)n1C', '1 (yes)');

* * *

- SYSTEM UNDER TEST: Tyrosyl-tRNA synthetase, putative (Trypanosoma cruzi (strain CL Brener)) (UniProt Q4DSP6)
- Sequence (Q4DSP6 as listed by the source): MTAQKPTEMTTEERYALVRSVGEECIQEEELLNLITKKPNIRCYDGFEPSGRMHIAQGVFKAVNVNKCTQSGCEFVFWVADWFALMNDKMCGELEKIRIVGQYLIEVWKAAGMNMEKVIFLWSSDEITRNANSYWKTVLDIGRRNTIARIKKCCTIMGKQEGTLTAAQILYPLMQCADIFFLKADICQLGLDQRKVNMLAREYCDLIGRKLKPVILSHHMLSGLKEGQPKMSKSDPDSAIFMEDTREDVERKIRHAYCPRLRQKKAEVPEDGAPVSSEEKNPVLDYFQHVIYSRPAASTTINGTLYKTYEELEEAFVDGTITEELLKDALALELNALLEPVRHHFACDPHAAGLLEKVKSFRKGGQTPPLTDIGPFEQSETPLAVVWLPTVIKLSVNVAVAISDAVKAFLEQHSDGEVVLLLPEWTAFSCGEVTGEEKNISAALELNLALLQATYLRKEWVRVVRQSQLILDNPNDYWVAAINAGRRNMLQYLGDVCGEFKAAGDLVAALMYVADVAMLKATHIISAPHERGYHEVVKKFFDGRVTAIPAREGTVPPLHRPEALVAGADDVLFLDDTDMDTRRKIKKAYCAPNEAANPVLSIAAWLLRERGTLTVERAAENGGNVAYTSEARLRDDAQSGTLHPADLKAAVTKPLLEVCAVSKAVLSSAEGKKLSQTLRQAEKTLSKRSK
- ASSAY PROCEDURE: Trypanosoma cruzi tyrosyl tRNA synthetase (TcYRS) SOP
- Format: functional
- Parameters: scale not given: direction of the effect not stated beside the values
- COND: 30 µM
# Percent Effect values compiled below
ASSAY ENDPOINT: Percent Effect (%)

INSERT INTO measurements (compound, unit_of_measurement, reported_measurement) VALUES
  ('COCC1CN(CC2CC2)Cc2nn(C)cc21 (stereo not drawn)', '%', -5.13),
  ('Cc1cccn2c(=O)cc(CN3CCCCC3Cn3cncn3)nc12 (stereo not drawn)', '%', -6.17),
  ('CN(CCNC(=O)N1CCN(Cc2ccon2)CC1)c1ccccc1', '%', 3.7),
  ('Cc1cc(C)n(CC2CN(Cc3cscn3)CCO2)n1 (stereo not drawn)', '%', 21.9),
  ('CCN(CC1CCOC1)C(=O)Nc1ccc(N2CCCC2)nc1 (stereo not drawn)', '%', 18.1),
  ('CCc1csc(C2CCCN(C(=O)c3cnn(CC)c3)C2)n1 (stereo not drawn)', '%', -2.6),
  ('CCNC(=O)c1ncn2c1CN(C)S(=O)(=O)c1ccccc1-2', '%', 6.17),
  ('Cc1c(F)cc(C(=O)O)cc1S(=O)(=O)Nc1ccc2c(c1)OCCO2', '%', 1.21),
  ('CCOC(=O)NC(CNC(=O)c1ccccn1)CC(C)C (stereo not drawn)', '%', 8.64),
  ('CCN(CC)CCNc1ncc(-c2cc(C)no2)c(-c2ccoc2C)n1', '%', 14.3),
  ('COC(=O)c1sccc1S(=O)(=O)N1CCC(Oc2cccnn2)CC1', '%', 0),
  ('CN1CCOC(CNC(=O)CCCOCCc2ccccc2)C1 (stereo not drawn)', '%', 22.9),
  ('Cc1ccc([C@@H]2CN(C(=O)c3cccnn3)C[C@H]2NC(=O)C2CC2)cc1', '%', 19.5),
  ('Cc1ccc(CN2CCCC3(CCN(S(=O)(=O)N(C)C)C3)C2)o1 (stereo not drawn)', '%', 19.2),
  ('Cc1ccccc1CN1CCN(Cc2nccn2C)CC1', '%', 3.7),
  ('Cc1cccc(CN2CCc3c(nc(N4CCC(C)CC4)[nH]c3=O)C2)n1', '%', 14.3),
  ('NC(=O)c1cccc(CC2CCN(C(=O)CO)C2)c1 (stereo not drawn)', '%', 17.5),
  ('O=C1[C@@H]2CCN(Cc3ccoc3)C[C@@H]2OCCN1c1ccccc1', '%', 11.5),
  ('CCc1nc(C2CCCN2C(=O)CCn2cncn2)no1 (stereo not drawn)', '%', -2.35),
  ('O=C(CCN1CCCN(c2nccs2)CC1)Nc1ccccc1', '%', -5.13),
  ('Cc1nc(C)n(CC2CCCN(Cc3ccc(C(N)=O)cc3)C2)n1 (stereo not drawn)', '%', 11.8),
  ('O=C(CN1CC(n2cccn2)C1)NCCCc1ccccc1', '%', 11),
  ('COC[C@@]12CCO[C@@H]1CCN(C(=O)COc1ccccc1OC)C2', '%', 11.1),
  ('CS(=O)(=O)N1CC[C@H]2C[C@@H](C(=O)N3CCOCC3)O[C@@H]2C1', '%', -7.5),
  ('Cn1ncc2c(N3CCN(C(N)=O)CC3)nc(C3CCCC3)nc21', '%', -7.69),
  ('CC(O)CN1CCN(C(=O)c2ccc(N(C)C)nn2)CC1 (stereo not drawn)', '%', 12.2),
  ('COc1ccc(F)cc1CN1CCCC(c2cc(C(N)=O)[nH]n2)C1 (stereo not drawn)', '%', 5.13),
  ('Cc1nccnc1N1CC[C@@H](NC(=O)c2cnccn2)[C@H](O)C1', '%', 14.6),
  ('CC(NC(=O)CCn1cncn1)c1nnc2n1CCCCC2 (stereo not drawn)', '%', 18.8),
  ('O=C(Cc1ccccc1F)N1CCN(C(=O)c2cccc(F)c2)CC1', '%', -59.7),
  ('O=C(c1nn(-c2ccccc2F)cc1O)N1CCCC1', '%', -8.54),
  ('O=C(Cc1csc(-c2nnc[nH]2)n1)N1CCCC1Cn1cccn1 (stereo not drawn)', '%', 5.13),
  ('Cc1ccc(CNCC2CCc3nnc(C(C)C)n3C2)s1 (stereo not drawn)', '%', 0),
  ('Cc1cc(NC(=O)NCC(C)O)n(C)n1 (stereo not drawn)', '%', 12.2),
  ('CCn1cnnc1C1CCN(C(=O)c2ccc3cc[nH]c3c2)CC1', '%', 7.79),
  ('O=C(c1cccc2c1OCO2)N1CCCC1c1noc(C2CC2)n1 (stereo not drawn)', '%', 11.4),
  ('Cc1nn(C)c(C)c1C1COCCN1C(=O)Cc1cccc(F)c1 (stereo not drawn)', '%', 5),
  ('CCOC1CCN(C(=O)c2cnn(-c3ccccc3Cl)c2)CC1', '%', 16.1),
  ('CN(c1ccncn1)C1CC2(CCN(C(=O)c3ccsc3)C2)C1 (stereo not drawn)', '%', 17.5),
  ('O=C(CCc1ccccc1)NCC1CCN(Cc2ccsc2)CC1', '%', 8.97),
  ('Cc1cnn(CCNCc2nnc(C3CC3)o2)c1', '%', 28.2),
  ('CC(C)n1[nH]c(=O)c2c1NC(=O)CC2c1cccnc1 (stereo not drawn)', '%', 19.5),
  ('NC(=O)c1cc(C2CCCN(CCc3ccccn3)C2)n[nH]1 (stereo not drawn)', '%', -1.21),
  ('COC1COC2(CCN(Cc3ccccc3Cl)CC2)C1 (stereo not drawn)', '%', 5.13),
  ('CCn1ccnc1CN1CCN(CC(O)Cn2cccn2)CC1 (stereo not drawn)', '%', 6.02),
  ('Cn1ccnc1CNC(=O)N(CCCO)C1CCCc2ccccc21 (stereo not drawn)', '%', 10.4),
  ('OCC1CCCN1c1cc(N2CCC(OC3CCCC3)CC2)ncn1 (stereo not drawn)', '%', 23.5),
  ('Cc1nc(C)n(C2CCCN(C(=O)CCCn3ccnc3)C2)n1 (stereo not drawn)', '%', 3.66);

Measured values drawn from ChEMBL document CHEMBL3988442 for this set.
